target: UniProt O42713; assay: Inhibition of mushroom tyrosinase using L-tyrosine as substrate incubated for 30 mins by spectrophotometric analysis
Sequence (O42713 whole entry): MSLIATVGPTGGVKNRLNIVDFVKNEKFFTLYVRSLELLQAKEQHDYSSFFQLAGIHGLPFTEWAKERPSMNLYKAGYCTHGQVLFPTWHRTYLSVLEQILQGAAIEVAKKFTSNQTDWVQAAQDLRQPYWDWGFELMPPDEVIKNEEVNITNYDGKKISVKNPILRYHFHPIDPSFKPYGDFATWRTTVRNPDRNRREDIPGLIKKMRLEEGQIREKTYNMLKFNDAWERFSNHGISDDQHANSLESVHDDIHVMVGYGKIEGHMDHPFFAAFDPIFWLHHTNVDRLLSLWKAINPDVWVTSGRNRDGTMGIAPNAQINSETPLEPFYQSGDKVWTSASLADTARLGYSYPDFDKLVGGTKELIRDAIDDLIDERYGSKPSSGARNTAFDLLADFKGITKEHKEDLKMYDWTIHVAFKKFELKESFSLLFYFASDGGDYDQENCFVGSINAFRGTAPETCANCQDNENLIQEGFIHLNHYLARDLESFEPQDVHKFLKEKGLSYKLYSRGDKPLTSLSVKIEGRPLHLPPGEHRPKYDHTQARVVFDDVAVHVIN
pIC50: −log10 of the molar value.

| Molecular string | pIC50 |
| --- | --- |
| O=C1/C(=C/c2ccc(O)cc2O)Cc2ccc3ccccc3c21 | 6.82 |

====

assay: Cytotoxicity against human C8166 cells assessed as reduction in cell viability by MTT assay; assay type: toxicity, cell-based
Readout kind: CC50

| Molecular string | Test value |
| --- | --- |
| COc1cc2c(cc1O)C(=O)/C(=C/c1ccc(C(C)=O)cc1)O2 | > 200 µM |

====

target: Amine oxidase [flavin-containing] A (Homo sapiens, UniProt P21397); experiment: Inhibition of recombinant human MAO-A using p-tyramine as substrate by Amplex-Red MAO assay
Sequence (P21397 whole entry): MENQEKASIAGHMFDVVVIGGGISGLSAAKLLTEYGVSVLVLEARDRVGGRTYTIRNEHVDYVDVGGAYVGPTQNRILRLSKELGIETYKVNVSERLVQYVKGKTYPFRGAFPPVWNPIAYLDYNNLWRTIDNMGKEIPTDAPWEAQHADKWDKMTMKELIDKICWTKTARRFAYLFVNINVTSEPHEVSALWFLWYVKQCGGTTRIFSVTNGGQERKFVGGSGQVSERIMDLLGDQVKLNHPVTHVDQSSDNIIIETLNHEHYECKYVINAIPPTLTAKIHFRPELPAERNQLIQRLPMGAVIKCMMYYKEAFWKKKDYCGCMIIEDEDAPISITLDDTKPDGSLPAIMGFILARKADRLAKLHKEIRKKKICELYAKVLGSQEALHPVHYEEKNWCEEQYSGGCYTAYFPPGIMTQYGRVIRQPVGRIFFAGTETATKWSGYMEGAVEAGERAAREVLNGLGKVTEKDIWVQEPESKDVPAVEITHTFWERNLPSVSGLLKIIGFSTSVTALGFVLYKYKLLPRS
pKi: −log10 of the molar value.
Readout kind: pKi

| Molecular string | Test value |
| --- | --- |
| O=C1/C(=C/c2c3ccccc3cc3ccccc23)Oc2ccccc21 | 6.96 |
